assay: Metabolic stability in human hepatic microsome; format: in vitro ADME; conditions: microsomes, pH 7.4; human hepatic microsome, NADPH(+); read-out: CL NADPH(+)
Starred links: 1 amine or outer side, 2 acyl side, 3 side chain; linkers in the order of their positions; H or OH if unused. Positions of bridges follow the written chain, without caps; N, C: chain ends. Non-standard residues stand in square brackets, D forms with d. Residues, ends and D or L forms follow the SMILES beside them. *: point of attachment. NMePhe(3-Cl) = CN[C@@H](Cc1cccc(Cl)c1)C(=O)O; NMeF = CN[C@@H](Cc1ccccc1)C(=O)O; NMeI = CC[C@H](C)[C@H](NC)C(=O)O; NMeβAla = CN(CCC(=O)[*:2])[*:1]; NMeL = CN[C@@H](CC(C)C)C(=O)O; NMeV = CN[C@H](C(=O)O)C(C)C; NMeA = CN[C@@H](C)C(=O)O; Piperidide = C1CCN(*)CC1; β3hA = C[C@H](N)CC(=O)O; Sar = CNCC(=O)O; tBu = CC(C)(C)*
Each entry below lists one item and its recorded microsomal CLint at 1 uM value.
Remember to put the unit after the number in your answer.

Recorded microsomal CLint at 1 uM, per entry:
>>> readout_value("CC(C)C[C@H]1C(=O)N[C@@H](Cc2ccccc2)C(=O)N(C)[C@@H](C(C)C)C(=O)N[C@@H]([C@@H](C)O)C(=O)N(C)[C@@H](C)C(=O)NCC(=O)N(C)[C@@H](Cc2ccccc2)C(=O)N[C@H](C(=O)N(C)[C@@H](Cc2ccccc2)C(=O)N[C@@H](C)C(=O)N2CCCCC2)CC(=O)N(C)CCC(=O)N[C@@H](C(C)C)C(=O)N1C [DP-352] ([NMeβAla]V[NMeL]F[NMeV]T[NMeA]G[NMeF]D[NMeF]A-Piperidide; lactam N-10)")
"66 µL/min/mg"
>>> readout_value("CC(C)C[C@@H]1NC(=O)[C@H]([C@@H](C)O)NC(=O)[C@H](CC(C)C)N(C)C(=O)[C@H](Cc2ccccc2)N(C)C(=O)[C@H](CC(C)C)N(C)C(=O)C[C@@H](C(=O)N2CCCCC2)NC(=O)[C@H](CC(C)C)N(C)C1=O [DP-722] ([NMeL][NMeF][NMeL]TL[NMeL]D-Piperidide; lactam N-7)")
"311 µL/min/mg"

**Q:** In one line, give reported microsomal CLint at 1 uM of the entry CC[C@H](C)[C@H](NC(=O)[C@H](Cc1ccccc1)N(C)C(=O)[C@H](Cc1cccc(Cl)c1)N(C)C(=O)[C@H](C)N(C)C(=O)[C@@H]1CCCN1C(=O)[C@@H]1CC(=O)N[C@@H](C)C(=O)N(C)[C@@H](CC(C)C)C(=O)N(C)[C@@H](Cc2ccccc2)C(=O)N[C@@H]([C@@H](C)O)C(=O)N(C)[C@@H](Cc2ccccc2)C(=O)N[C@@H](CC(C)C)C(=O)N1)C(=O)N1CCCCC1 [DP-915] (A[NMeL][NMeF]T[NMeF]LDP[NMeA][NMePhe(3-Cl)][NMeF]I-Piperidide; lactam N-7) .
**A:** 89 µL/min/mg

**Q:** Provide microsomal CLint at 1 uM value for the following molecule: CC[C@H](C)[C@H](NC(=O)[C@H](C)N(C)C(=O)[C@H](Cc1ccccc1)N(C)C(=O)[C@H](CC(C)C)N(C)C(=O)[C@@H]1CC(=O)N[C@@H](C)C(=O)N(C)[C@@H](Cc2ccccc2)C(=O)N(C)[C@@H](CC(C)C)C(=O)N[C@@H]([C@@H](C)O)C(=O)N(C)CC(=O)N(C)[C@@H](Cc2ccccc2)C(=O)N1)C(=O)N1CCCCC1 [DP-918] (A[NMeF][NMeL]T[Sar][NMeF]D[NMeL][NMeF][NMeA]I-Piperidide; lactam N-7)
**A:** 55 µL/min/mg

**Q:** Identify the reported microsomal CLint at 1 uM for the following entry. CC[C@H](C)[C@H]1C(=O)N[C@@H](COC(C)(C)C)C(=O)N(C)[C@@H](C(C)C)C(=O)N[C@@H](C)CC(=O)N(C)[C@@H](C)C(=O)N(C)[C@@H](Cc2ccccc2)C(=O)N[C@@H](CC(C)C)C(=O)N(C)[C@@H](CC(C)C)C(=O)N[C@@H]([C@@H](C)O)C(=O)N(C)CC(=O)N1C [DP-820] (cyclo(L[NMeL]T[Sar][NMeI]S(tBu)[NMeV][β3hA][NMeA][NMeF]))
**A:** 511 µL/min/mg
